The reported numbers originate from patent US11142543B2.

test: in vivo; details: male, SD, rat, po, 100 mg/kg, MRT
outcome.measure: MRT (h)
Write down the numeric answer in h and omit the unit.

I have this molecule here, C[C@H]1CC[C@@]2(OC1)O[C@H]1C[C@H]3[C@@H]4CC[C@@H]5C[C@H](NC(=O)N(CCNC(=O)CN(C)C)C6CCCCC6)CC[C@]5(C)[C@H]4CC[C@]3(C)[C@H]1[C@@H]2C , and I need its recorded MRT.
13.6

* * *

assay: in vivo; settings: male, SD, rat, po, 100 mg/kg, T1/2
outcome.measure: half-life (h)
Record the value in h, omitting the unit from your answer.

What value of half-life has been reported for the following compound? C[C@H]1CC[C@@]2(OC1)O[C@H]1C[C@H]3[C@@H]4CC[C@@H]5C[C@H](NC(=O)N(CCNC(=O)CN(C)C)C6CCCCC6)CC[C@]5(C)[C@H]4CC[C@]3(C)[C@H]1[C@@H]2C
9.7

* * *

assay: in vivo; conditions: male, SD, rat
outcome.measure: bioavailability (%)
Hi! Could you send only the number? It should be in %, unit omitted.

# lookup: bioavailability of C[C@H]1CC[C@@]2(OC1)O[C@H]1C[C@H]3[C@@H]4CC[C@@H]5C[C@H](NC(=O)N(CCNC(=O)CN(C)C)C6CCCCC6)CC[C@]5(C)[C@H]4CC[C@]3(C)[C@H]1[C@@H]2C
11.1

* * *

test: in vivo; details: male, SD, rat, po, 100 mg/kg
outcome.measure: Tmax (h)
State just the number; it will be interpreted in h.

What does the record list as Tmax for C[C@H]1CC[C@@]2(OC1)O[C@H]1C[C@H]3[C@@H]4CC[C@@H]5C[C@H](NC(=O)N(CCNC(=O)CN(C)C)C6CCCCC6)CC[C@]5(C)[C@H]4CC[C@]3(C)[C@H]1[C@@H]2C ?
2.8

* * *

test: in vivo; details: male, SD, rat, po, 100 mg/kg
outcome.measure: AUC (ng·h/mL)
Answer with a number only, understood to be in ng·h/mL.

So what's the measured AUC for this one? C[C@H]1CC[C@@]2(OC1)O[C@H]1C[C@H]3[C@@H]4CC[C@@H]5C[C@H](NC(=O)N(CCNC(=O)CN(C)C)C6CCCCC6)CC[C@]5(C)[C@H]4CC[C@]3(C)[C@H]1[C@@H]2C
3120

* * *

test: in vivo; conditions: male, SD, rat, iv, 1 mg/kg
outcome.measure: Cmax (ng/mL)
// units = ng/mL; emit number, no label

Could you tell me which Cmax is on file for C[C@H]1CC[C@@]2(OC1)O[C@H]1C[C@H]3[C@@H]4CC[C@@H]5C[C@H](NC(=O)N(CCNC(=O)CN(C)C)C6CCCCC6)CC[C@]5(C)[C@H]4CC[C@]3(C)[C@H]1[C@@H]2C ?
285

* * *

assay: in vivo; details: male, SD, rat, iv, 1 mg/kg
outcome.measure: Tmax (min)
Provide the reading as a plain figure in min.

// returns reported Tmax for input C[C@H]1CC[C@@]2(OC1)O[C@H]1C[C@H]3[C@@H]4CC[C@@H]5C[C@H](NC(=O)N(CCNC(=O)CN(C)C)C6CCCCC6)CC[C@]5(C)[C@H]4CC[C@]3(C)[C@H]1[C@@H]2C
6
